Biological target: DPP-IV (Homo sapiens)
Construct: Soluble human DPP-IV lacking the transmembrane anchor (Gly31-Pro766) was expressed in a recombinant YEAST-strain; Pre-Pro-alpha-mating factor leader (secretion fusion) (N, cleaved yes); made in house
Assay: Inhibition of DPP-IV peptidase activity, continuous fluorimetric assay (Gly-Pro-AMC cleavage)
Format: biochemical, human and porcine
Conditions: inhibition of DPP-IV peptidase activity; 50 pM DPP-IV, 16 μM Gly-Pro-AMC, pH 7.4, 25° C.; values grouped in 3 classes; read-out: IC50
Where a name gives a salt, the structure may show the parent alone.
measuredMetric: IC50

Here's what some known entries look like.
compound | IC50
N[C@@H](CC(=O)NCc1cc(Cl)ccc1Cl)Cc1ccccc1F | 101 to 1000 nM
NC(CC(=O)NC1CCc2ccccc21)Cc1ccccc1F (centres unmarked) | 1000 to 2000 nM
Cc1ccccc1-n1nc(C)c(CNC(=O)C[C@H](N)Cc2ccccc2F)c1C | 101 to 1000 nM
CN1CCN(CC(c2ccccc2)N(C)C(=O)C[C@H](N)Cc2ccccc2F)CC1 (some centres unmarked) | 1000 to 2000 nM
NC(=O)c1cccc(CNC(=O)C[C@H](N)Cc2ccccc2F)c1 [Example 30, Trifluoroacetate Salt] | 101 to 1000 nM

Asked: So what does the record say about IC50 for C[S+]([O-])c1ccccc1CNC(=O)C[C@H](N)Cc1ccccc1F (single isomer, unassigned) ?
Given back: 101 to 1000 nM

Asked: // query: `N[C@@H](CC(=O)NCCc1ccc(S(N)(=O)=O)cc1)Cc1ccccc1F`
Given back: 101 to 1000 nM

Asked: What about N[C@@H](CC(=O)NCc1cccc(C(=O)NC2CC2)c1)Cc1ccccc1F [Example 32, Trifluoroacetate Salt] ?
Given back: 101 to 1000 nM

Asked: How about CN(C)C(CNC(=O)C[C@H](N)Cc1ccccc1F)c1ccccc1 (single isomer, unassigned) ?
Given back: 101 to 1000 nM

Asked: Then what about the compound `Cc1ccccc1CNC(=O)C[C@H](N)Cc1ccccc1F` ?
Given back: 101 to 1000 nM

Asked: Would you kindly repeat that for `N[C@@H](CC(=O)NCc1cccc(Cl)c1)Cc1ccccc1F` ?
Given back: 101 to 1000 nM

Asked: Now this one: `N[C@@H](CC(=O)NCc1cccc(OC(F)F)c1)Cc1ccccc1F`
Given back: 101 to 1000 nM

Asked: Now the same for N[C@@H](CC(=O)NC(Cc1ccccc1)c1ccccc1)Cc1ccccc1F (single isomer, unassigned)
Given back: 101 to 1000 nM

Asked: // repeat for `CN(Cc1ccccc1Cl)C(=O)C[C@H](N)Cc1ccccc1F` and report
Given back: 101 to 1000 nM

Asked: What about CN(Cc1ccccc1F)C(=O)C[C@H](N)Cc1ccccc1F [Example 36, Hydrochloride] ?
Given back: 101 to 1000 nM

Asked: Same read-out for `N[C@@H](CC(=O)NCCc1c(F)cccc1Cl)Cc1ccccc1F` ?
Given back: 101 to 1000 nM

Asked: Another compound to check: N[C@@H](CC(=O)NC(CN1CCCC1)c1ccccc1Cl)Cc1ccccc1F (single isomer, unassigned)
Given back: < 100 nM

====

Biological target: DPP-IV (Homo sapiens)
Construct: Soluble human DPP-IV lacking the transmembrane anchor (Gly31-Pro766) was expressed in a recombinant YEAST-strain; Pre-Pro-alpha-mating factor leader (secretion fusion) (N, cleaved yes); made in house
Assay: Inhibition of DPP-IV peptidase activity, continuous fluorimetric assay (Gly-Pro-AMC cleavage)
Format: biochemical, human and porcine
Settings: inhibition of DPP-IV peptidase activity; 50 pM DPP-IV, 16 μM Gly-Pro-AMC, pH 7.4, 25° C.; values grouped in 3 classes; read-out: IC50
Procedure: Inhibition of DPP-IV peptidase activity was monitored with a continuous fluorimetric assay. This assay is based on the cleavage of the substrate Gly-Pro-AMC (Bachem) by DPP-IV, releasing free AMC. The assay is carried out in 96-well microtiterplates. In a total volume of 100 μL, compounds are preincubated with 50 pM DPP-IV employing a buffer containing 10 mM Hepes, 150 mM NaCl, 0.005% Tween 20 (pH 7.4). […] The inhibitory potential of the compounds were determined. […]
pIC50: −log10 of the molar value. Where a name gives a salt, the structure may show the parent alone.
# Lookup of reported pIC50 keyed by entry

Below: 3 compounds and their reported pIC50.
compound | pIC50
N[C@@H](CC(=O)NCc1ccc(OC(F)F)cc1)Cc1ccccc1F | 5.70 to 6.00
Cc1ccccc1CN(C)C(=O)C[C@H](N)Cc1ccccc1F [Example 37, Hydrochloride] | 6.00 to 7.00
N[C@@H](CC(=O)NCCc1cccc(Cl)c1)Cc1ccccc1F | 6.00 to 7.00

Asked: Could you share which pIC50 value was measured for N[C@@H](CC(=O)NCC(c1ccccc1)N1CCCC1)Cc1ccccc1F (single isomer, unassigned) ?
Given back: 6.00 to 7.00

Asked: # repeat for N[C@@H](CC(=O)NCC(c1cccc(Cl)c1)N1CCCC1)Cc1ccccc1F (some centres unmarked)
Given back: 6.00 to 7.00

Asked: And for `COc1cccc(CCNC(=O)C[C@H](N)Cc2ccccc2F)c1` ?
Given back: 5.70 to 6.00

====

Molecular target: DPP-IV (Homo sapiens, UniProt P27487)
Construct: Soluble human DPP-IV lacking the transmembrane anchor (Gly31-Pro766) was expressed in a recombinant YEAST-strain; Pre-Pro-alpha-mating factor leader (secretion fusion) (N, cleaved yes); made in house
Sequence (P27487 31-766): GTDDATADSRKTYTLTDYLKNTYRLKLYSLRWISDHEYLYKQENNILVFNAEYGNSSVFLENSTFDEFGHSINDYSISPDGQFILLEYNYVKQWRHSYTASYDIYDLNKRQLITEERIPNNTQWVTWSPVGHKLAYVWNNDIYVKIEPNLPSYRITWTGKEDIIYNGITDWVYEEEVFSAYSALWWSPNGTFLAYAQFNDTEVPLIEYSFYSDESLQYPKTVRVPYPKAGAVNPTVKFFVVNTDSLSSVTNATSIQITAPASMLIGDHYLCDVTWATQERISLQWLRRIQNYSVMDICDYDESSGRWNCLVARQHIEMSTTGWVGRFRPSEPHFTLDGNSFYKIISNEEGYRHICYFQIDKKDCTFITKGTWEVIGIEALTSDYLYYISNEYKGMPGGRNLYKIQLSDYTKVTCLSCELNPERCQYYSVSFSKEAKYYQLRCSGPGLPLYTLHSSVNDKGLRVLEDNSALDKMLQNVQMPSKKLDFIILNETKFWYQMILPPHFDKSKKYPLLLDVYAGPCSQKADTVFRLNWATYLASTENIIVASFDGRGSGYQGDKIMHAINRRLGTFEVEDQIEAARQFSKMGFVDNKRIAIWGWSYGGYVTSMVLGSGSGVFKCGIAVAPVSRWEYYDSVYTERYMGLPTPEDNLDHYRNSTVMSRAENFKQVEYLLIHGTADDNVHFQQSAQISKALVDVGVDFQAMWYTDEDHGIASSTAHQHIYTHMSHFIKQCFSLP
Assay: Inhibition of DPP-IV peptidase activity, continuous fluorimetric assay (Gly-Pro-AMC cleavage)
Assay type: biochemical, human and porcine
Details: inhibition of DPP-IV peptidase activity; 50 pM DPP-IV, 16 μM Gly-Pro-AMC, pH 7.4, 25° C.; values grouped in 3 classes; read-out: IC50
Where a name gives a salt, the structure may show the parent alone.
measuredMetric: IC50

Known IC50 results, listed for orientation:
compound | subjectOfTest | IC50
COc1cccc(C(C)NC(=O)CC(N)Cc2ccccc2F)c1 (centres unmarked) | DPP-IV (Homo sapiens, UniProt P27487) | 1000 to 2000 nM
N[C@@H](CC(=O)NCCc1ccccc1Cl)Cc1ccccc1F | DPP-IV (Homo sapiens, UniProt P27487) | 101 to 1000 nM
NC(CC(=O)NC1c2ccccc2CC1O)Cc1ccccc1F (centres unmarked) | DPP-IV (Homo sapiens, UniProt P27487) | 1000 to 2000 nM
N[C@@H](CC(=O)NCc1cccc(-c2ccccc2)c1)Cc1ccccc1F | DPP-IV (Homo sapiens, UniProt P27487) | 1000 to 2000 nM
CSc1ccccc1CN(C)C(=O)C[C@H](N)Cc1ccccc1F [Example 38, Hydrochloride] | DPP-IV (Homo sapiens, UniProt P27487) | 101 to 1000 nM
N[C@@H](CC(=O)N(Cc1cccnc1)C1CC1)Cc1ccccc1F | DPP-IV (Homo sapiens, UniProt P27487) | 101 to 1000 nM

Asked: Return IC50 measured with DPP-IV (Homo sapiens, UniProt P27487) given this compound: `N[C@@H](CC(=O)NCc1ccc2c(c1)CCO2)Cc1ccccc1F`
Given back: 101 to 1000 nM

Asked: Next up: `N[C@@H](CC(=O)NCCc1ccccn1)Cc1ccccc1F`
Given back: 101 to 1000 nM
